molecular target: T1, human folate receptor alpha (hFRα), recombinant protein (human, UniProt P15328 25-233); assay: BLI
T1 construct: Bought recombinant proteins (His-tagged, or biotinylated via Avi-tag, e.g. AcroBiosystems FO1-H82E2, F01-H52H1); also called hFOLR1; huFOLR1
T1 sequence (P15328 25-233 limits assumed): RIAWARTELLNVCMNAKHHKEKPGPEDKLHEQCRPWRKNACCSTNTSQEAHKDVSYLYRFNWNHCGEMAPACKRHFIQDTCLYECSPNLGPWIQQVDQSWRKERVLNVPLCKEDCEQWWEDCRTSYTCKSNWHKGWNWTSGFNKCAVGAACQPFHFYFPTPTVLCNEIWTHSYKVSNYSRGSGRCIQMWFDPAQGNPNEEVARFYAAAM
Recorded measurements of nm (Fold wt), one per entry
Please reply with the value in numeric form only.

# return recorded nm (Fold wt) for entry P01500085: P0150001 with A24V, S27L, M32P (VHH) VHH: EVQLVESGGGLVQPGGSLRLSCAVSGLGFSGPIMGWYRQAPGKQRELVATVTSHGTTNYADSVKGRFTISRDNAKNTVYLQMNSLRPEDTAVYYCNAHFPGIYWGKGTLVTVSS
1.2

***
# return recorded nm (Fold wt) for entry P01500089: P0150001 with S27T, M32I, N76D (VHH) VHH: EVQLVESGGGLVQPGGSLRLSCAASGTGFSGIIMGWYRQAPGKQRELVATVTSHGTTNYADSVKGRFTISRDNAKDTVYLQMNSLRPEDTAVYYCNAHFPGIYWGKGTLVTVSS
5.7

Source: patent US20250304677A1
